// data source = ChEMBL document CHEMBL1201862

The compounds listed here are annotated with their IC50.
- measured_target: Tumor necrosis factor (Homo sapiens)
- Sequence (P01375 whole entry): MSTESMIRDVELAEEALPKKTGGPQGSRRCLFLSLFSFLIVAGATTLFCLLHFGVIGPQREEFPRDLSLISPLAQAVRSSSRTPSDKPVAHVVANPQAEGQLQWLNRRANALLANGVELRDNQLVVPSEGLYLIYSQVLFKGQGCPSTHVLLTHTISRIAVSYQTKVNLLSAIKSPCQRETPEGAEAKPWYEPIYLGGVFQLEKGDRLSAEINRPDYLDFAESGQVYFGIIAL
- assay_notes: analog potency on TNFa NF-kB signaling – cell-based, revised, SAR follow-up (AID 2337)
- Type: functional
Calls of active or inactive are those of the source.

{"compound": "COc1ccc(NC(=O)c2ccc(CN3CCCCC3)cc2)cc1", "IC50": "> 20 µM (inactive)"}
{"compound": "Cn1nc(-c2ccc(Cl)cc2)cc1C(=O)NC1CCCc2c1cnn2-c1ccccc1F (stereo not given)", "IC50": "2.72 µM (active)"}
{"compound": "COc1cc(C(=O)Nc2scc(-c3ccc(Br)cc3)c2C(=O)O)cc(OC)c1OC", "IC50": "6.88 µM (active)"}
{"compound": "O=C(Nc1ccc(S(=O)(=O)N2CCCCC2)cc1)c1ccc(CN2CCc3ccccc3C2)cc1", "IC50": "0.616 µM (active)"}
{"compound": "O=C(CCc1ccccc1)Nc1sc2c(c1C(=O)O)CCCC2", "IC50": "> 20 µM (inactive)"}

###

- measured_target: Paired box protein Pax-8 (Homo sapiens, UniProt Q06710)
- Sequence (Q06710 whole entry): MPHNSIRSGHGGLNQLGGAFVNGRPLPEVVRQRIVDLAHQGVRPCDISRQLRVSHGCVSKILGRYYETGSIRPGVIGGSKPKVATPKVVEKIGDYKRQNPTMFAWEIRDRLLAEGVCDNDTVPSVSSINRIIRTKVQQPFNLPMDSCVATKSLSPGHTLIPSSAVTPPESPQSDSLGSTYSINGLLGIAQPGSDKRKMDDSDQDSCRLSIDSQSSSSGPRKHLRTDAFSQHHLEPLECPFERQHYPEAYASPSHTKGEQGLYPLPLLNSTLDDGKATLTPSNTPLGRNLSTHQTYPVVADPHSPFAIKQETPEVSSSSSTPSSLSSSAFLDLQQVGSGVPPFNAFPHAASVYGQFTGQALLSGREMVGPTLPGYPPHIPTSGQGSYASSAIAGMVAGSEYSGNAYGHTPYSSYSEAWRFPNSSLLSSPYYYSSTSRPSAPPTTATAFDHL
- assay_notes: PAX8 transcriptional activity inhibition in RMG-I – RMG-I cells, luciferase, cherry-pick, dose response (AID 687027);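 note: luciferase reporter driven by Pax8 target thyroperoxidase promoter measured by SteadyGlo luminescence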
- Assay type: functional, cell-based
Active and inactive are the calls of the source.

{"molecule": "Oc1nc2ccccc2n1C1CCN(C(c2cc3ccccc3o2)c2nnnn2-c2ccc3c(c2)OCCO3)CC1 (stereo not drawn)", "measured_target": "Paired box protein Pax-8 (Homo sapiens, UniProt Q06710)", "AC50": "5.8 µM (active)"}
{"molecule": "O=C(Nc1cccc(Br)c1)c1ccc2c(c1)SC1=NS(=O)(=O)CCN12", "measured_target": "Paired box protein Pax-8 (Homo sapiens, UniProt Q06710)", "AC50": "3.32 µM (active)"}
{"molecule": "CCOC(=O)N1CCC(NC(=O)c2ccc3c(c2)N=C(C)c2c(C)ccc(C)c2S3)CC1", "measured_target": "Paired box protein Pax-8 (Homo sapiens, UniProt Q06710)", "AC50": "3.05 µM (active)"}
{"molecule": "CCN1CCN(Cc2ccc(NC(=O)c3ccc(C)c(NC(=O)c4cnc5cc(C(F)(F)F)ccc5c4O)c3)cc2C(F)(F)F)CC1", "measured_target": "Paired box protein Pax-8 (Homo sapiens, UniProt Q06710)", "AC50": "10.6 µM (active)"}
{"molecule": "C[C@H](CO)N1C[C@H](C)[C@@H](CN(C)CC2CCCCC2)Oc2c(NC(=O)CCCCCC(=O)Nc3ccccc3N)cccc2C1=O", "measured_target": "Paired box protein Pax-8 (Homo sapiens, UniProt Q06710)", "AC50": "11.1 µM (active)"}
{"molecule": "C[C@@H]1CN([C@@H](C)CO)S(=O)(=O)c2ccc(C#Cc3ccc(F)cc3)cc2O[C@@H]1CN(C)C(=O)NC1CCCCC1", "measured_target": "Paired box protein Pax-8 (Homo sapiens, UniProt Q06710)", "AC50": "8.43 µM (active)"}
{"molecule": "CCC(=O)N1CCN(c2ccc(NC(=O)c3ccc([N+](=O)[O-])o3)cc2Cl)CC1", "measured_target": "Paired box protein Pax-8 (Homo sapiens, UniProt Q06710)", "AC50": "4.12 µM (active)"}
{"molecule": "COc1cccc(S(=O)(=O)N2CC[C@@H]3[C@H](CO)Nc4ccc(C5=CCCCC5)cc4[C@@H]32)c1", "measured_target": "Paired box protein Pax-8 (Homo sapiens, UniProt Q06710)", "AC50": "10 µM (active)"}
